System: K4 kissing-loop RNA reporter;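 note: bound reporter read as fluorescence of individual clusters on recovered sequencing chips by microscopy, with normalized cluster intensities fitted with a binding model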
PROCEDURE TEXT: apparent KD of K4 kissing-loop reporter; higher = weaker reporter binding
CONDITION SUMMARY: Eterna round: R107; input ligand: tryptophan 2.4 mM
Could you please report measured apparent KD of K4 kissing-loop reporter for the items listed next?
Answers are plain numbers, in nM.

{"SEQUENCE DATA": "CCGUAGAACGGAAGGAGCGCCAUAGAUAAGAAUUCCGUAAGUGAGUGAUGUUCACACAAAUGGCAGGUAGGUCGCCGUUAUUUAG [Arg B Ex t5]", "apparent KD of K4 kissing-loop reporter, nM": 201}
{"SEQUENCE DATA": "AAUCAAUACAGAAGGAGCGUGACAGUUGCGAGUGUAAUUUUAGCUAGUGAUGUUAGCAUUUCACAGGUAGGUCGCUGUACAUUUA [#05 K4 Arginine B Same State]", "apparent KD of K4 kissing-loop reporter, nM": 105}

Note: attention shifts to another entry.
Task: Tell me apparent KD of K4 kissing-loop reporter reported for CUUGGAAGGACGGCCGCCACUCGACAGUGAUGUUGUCCGAGUUGGUAACGCAGUGAUGUUGUGUCGAGGACCGGGUCCUAGGAAU [Exclusion Tryptophan B GF 26]
Output: 147

Reference source for all entries: the supplement of paper PMC9170038
